Dear all, I have gathered published Ki values for Adenosine receptor A1 (Homo sapiens); the list follows.
Give the number; nM is assumed, so skip it.

Example entries begin here.
>  <Compound>
CC(=O)Nc1ccn2nc(-c3cccc(C#N)c3)c(-c3cc(C)nc(Cl)c3)c2n1

>  <Assayed System>
Adenosine receptor A1 (Homo sapiens)

>  <Unit Tag>
nM

>  <Ki>
99

$$$$
>  <Compound>
Cc1ccnc2ccc(-c3c(-c4ccc(F)cc4)nc(NC(=O)N4CCOCC4)nc3C3CC3)cc12

>  <Assayed System>
Adenosine receptor A1 (Homo sapiens)

>  <Unit Tag>
nM

>  <Ki>
217

$$$$
>  <Compound>
Cc1cccnc1CNC(=O)c1c(N)nc(-c2ccco2)nc1OCCC1CCCCN1 (stereo not shown)

>  <Assayed System>
Adenosine receptor A1 (Homo sapiens)

>  <Unit Tag>
nM

>  <Ki>
8530

$$$$

Consider the record given below.
# query: Ki of entry Cc1cc(-c2c(-c3cccc(C#N)c3)nn3ccc(C(=O)NCC(C)(C)O)nc23)ccn1
5

====

Note to self: these compounds have Ki reported for Adenosine receptor A1 (Homo sapiens) in various publications.
Flag rule - Ki less than 200 nM flags condition met; the remaining entries get condition not met.

A selection of reference data follows.
>  <Compound>
COc1ccc(CNc2nc(N)c3nc(-c4ccco4)sc3n2)cc1

>  <Assigned Class>
condition met

$$$$
>  <Compound>
Fc1cccc(-c2cc3nc(NCc4nc5ccccc5[nH]4)ccn3n2)c1

>  <Assigned Class>
condition met

$$$$
>  <Compound>
Cc1cc(-c2c(-c3cccc(C#N)c3)nn3ccc(C(=O)NC4CNC(=O)C4)nc23)cc(C)n1 (stereo not shown)

>  <Assigned Class>
condition not met

$$$$

Identify whether the compound Cc1cc(Cl)cc(-c2cnc(NC(=O)N3CCC(N4CCCCC4)CC3)nc2-c2ccc(C)o2)c1 records Ki below 200 nM.
condition not met

Input CC(C)c1nc2nc(-c3ccccc3)cc(-c3ccccc3)c2[nH]1 ; condition: Ki strictly below 200 nM. Does it hold?
condition met

Does this compound meet the criterion Ki < 200 nM? CC(C)(C)OC(=O)N1CCO[C@@H](CNc2ccn3nc(-c4ccco4)c(C#N)c3n2)C1
condition met

Given Cc1cc(-c2c(-c3cccc(C#N)c3)nn3ccc(C(=O)NC(C)(C)CO)nc23)cc(Cl)n1 , is recorded Ki strictly lower than 200 nM?
condition met

Quick check: Ki of CCOC(=O)c1nnc(-c2ccco2)nc1N under 200 nM?
condition not met

Lab note: Ki threshold 200 nM. Does this compound come in strictly under it? Cc1cc(-c2c(-c3cccc(C#N)c3)nn3ccc(N[C@H](C)[C@H](O)CO)nc23)cc(Cl)n1
condition met

Does the reported Ki of N#Cc1c(-c2ccco2)nn2ccc(N3CCN(CCO)CC3)nc12 stay below 200 nM?
condition not met

Is 200 nM strictly greater than the compound's reported Ki? compound: CC(C)(O)CNC(=O)c1ccn2nc(-c3cccc(C#N)c3)c(-c3cncs3)c2n1
condition not met

====

Here's a roundup of pKi values tested on Adenosine receptor A1 (Homo sapiens), taken from various published works.
# pKi: negative log10 of molar concentration; output just the value

Reference set (5 entries):
>  <Compound>
Cc1ncnc2ccc(-c3cnc(NC(=O)N4CCN(C)CC4)nc3-c3ccc(F)cc3)cc12

>  <Measurement>
5.80

$$$$
>  <Compound>
Cc1cc(-c2c(-c3cccc(C#N)c3)nn3ccc(C(=O)NC(C)(C)C(C)(C)O)nc23)cc(Cl)n1

>  <Measurement>
6.65

$$$$
>  <Compound>
Cc1cc(-c2c(-c3cccc(C#N)c3)nn3ccc(NC(=N)N)nc23)cc(Cl)n1

>  <Measurement>
6.94

$$$$
>  <Compound>
Cc1cc(-c2c(-c3cccc(C#N)c3)nn3ccc(C(=O)NCC4CNC(=O)CO4)nc23)cc(C)n1 (centres unmarked)

>  <Measurement>
6.36

$$$$
>  <Compound>
Cc1cc(-c2cnc(NC(=O)N3CCO[C@@H](C)C3)nc2-c2ccc(F)cc2)cc(Cl)n1

>  <Measurement>
6.23

$$$$

Recorded pKi for N#Cc1c(-c2cccc(F)c2)nn2ccc(N3CCN(CCF)CC3)nc12 with Adenosine receptor A1 (Homo sapiens), please?
7.38

# returns recorded pKi (system: Adenosine receptor A1 (Homo sapiens)) for Cc1cc(-c2c(-c3cccc(C#N)c3)nn3ccc(N/C(=N\C#N)NCC(C)(C)O)nc23)cc(Cl)n1
7.54

Can you look up pKi on Adenosine receptor A1 (Homo sapiens) for Cc1cccnc1C(C)NC(=O)c1cnc(-c2ccco2)nc1N (centres unmarked) ?
5.35
